Cited source for all entries: patent US20260374766A1

IC50 values for the molecules below.
Tested on: H1299 p53 R273H
Experiment: Cell Proliferation Assay (CellTiter-Glo, CTG), H1299 p53 R273H (NClH1299-inducible p53 R273H)
Type: cell-based
Settings: Homo sapiens, NCI-H1299, 120 h, CellTiter-Glo, H1299 p53 R273H, 5 days

COc1ccc(C(=O)NC(C)C)cc1NCC#Cc1nc2c(N[C@@H]3CCN(C)C[C@@H]3F)cccn2c1SC(F)(F)F ... ≥ 10 µM
CNS(=O)(=O)c1ccc(OC)c(NCC#Cc2cc3c(N[C@@H]4CCN(C)C[C@@H]4F)cccn3c2SC(F)(F)F)c1 ... 5 to 8 µM
CNC(=O)c1ccc(NCC#Cc2nc3c(N[C@H]4CCC(=O)NC4)cccn3c2SC(F)(F)F)c(OC)c1 ... ≥ 10 µM

Alright, here's another molecule for you.
Task: State the recorded IC50 for this entry: COc1cc2c(cc1NCC#Cc1nc3c(N[C@@H]4CCN(C)C[C@@H]4F)cccn3c1SC(F)(F)F)C(=O)NC2
Result: 5 to 8 µM

###

Target: p53 Y220C (Homo sapiens, UniProt P04637, Y220C)
Test: Luciferase Reporter Assay (Luc), p53 response element, NClH1299 cells with inducible p53 Y220C
Format: cell-based
Conditions: luciferase reporter, NClH1299 inducible p53 Y220C, 6 hour; 10 uM tool compound as positive control
Structures can show the parent of a compound that is named as a salt.
Emax reference

COc1cc(C(=O)N(C)C)ccc1NCC#Cc1nc2c(N[C@@H]3CCN(C)C[C@@H]3F)cccn2c1SC(F)(F)F [Example 88] ... 80 to 90%
COc1cc(S(=O)(=O)C(C)C)ccc1NCC#Cc1nc2c(N[C@@H]3CCN(C)C[C@@H]3F)cccn2c1CC(F)(F)F [Example 77] ... 70 to 80%

Task: Which Emax value belongs to CNC(=O)c1ccc(NCC#Cc2nc3c(N[C@@H]4CCN(C)C[C@@H]4F)cccn3c2C2CC2)c(OC)c1 [Example 29] ?
Result: < 70%

Task: Same for COc1cc(C(=O)NC(C)C)ccc1NCC#Cc1nc2c(N[C@@H]3CCN(C)C[C@@H]3F)cccn2c1SC(F)(F)F [Example 89]
Result: 80 to 90%

Task: Now try C=C(C)C(=O)Nc1cc(NC2CCN(C)CC2)c2nc(C#CCNc3ccc(C(=O)NC)cc3OC)c(CC(F)(F)F)n2c1 [Example 13, formic acid salt] .
Result: < 70%

Task: Another compound to look at: CNC(=O)c1ccc(NCC#Cc2nc3c(N[C@@H]4CCN(C)C[C@@H]4F)cccn3c2SC(F)(F)F)cn1 [Example 94]
Result: > 90%

Task: What do you get for CNC(=O)c1cnc(NCC#Cc2nc3c(N[C@@H]4CCN(C)C[C@@H]4F)cccn3c2SC(F)(F)F)n1C [Example 161] ?
Result: < 70%

###

Target: p53 Y220C (Homo sapiens, UniProt P04637, Y220C)
Assay: Luciferase Reporter Assay (Luc), p53 response element, NClH1299 cells with inducible p53 Y220C
Type: cell-based
Settings: luciferase reporter, NClH1299 inducible p53 Y220C, 6 hour; read-out: Luc P53 Y220C AC50
Quick reference for AC50 among some compounds

Known AC50 results, listed for orientation:
COc1cc(C(N)=O)ccc1NCC#Cc1nc2c(N[C@@H]3CCN(C)C[C@@H]3F)cccn2c1SC(F)(F)F ... < 750 nM
COc1cc(C(=O)NC2CC2)ccc1NCC#Cc1nc2c(N[C@@H]3CCN(C)C[C@@H]3F)cccn2c1CC(F)(F)F ... 750 to 1500 nM
CNC(=O)c1ccc(OC)c(NCC#Cc2cc3c(N[C@@H]4CCNC[C@@H]4F)cccn3c2SC(F)(F)F)c1 ... < 750 nM
CNC(=O)c1ccc(NCC#Cc2nc3c(NC4CCN(C)CC4)cc(NC(C)=O)cn3c2CC(F)(F)F)c(OC)c1 ... > 3000 nM
CNC(=O)c1ccc(NCC#Cc2nc3c(N[C@@H]4CCN(C)C[C@@H]4F)cccn3c2C(F)(F)F)c(OC)c1 ... > 3000 nM
CCc1c(C#CCNc2ccc(S(C)(=O)=O)cc2OC)nc2c(NC3CCN(C)CC3)cccn12 ... > 3000 nM

Alright, here's another compound for you.
Task: Field: AC50 (p53 Y220C (Homo sapiens, UniProt P04637, Y220C)). Entry: CNC(=O)c1ccc(OC)c(NCC#Cc2nc3c(N[C@@H]4CCN(C)C[C@@H]4F)cc(F)cn3c2SC(F)(F)F)c1
Result: < 750 nM
